- Measurement Notes: Half life in BALB/c mouse at 5 mg/kg, iv or 200 mg/kg, po measured upto 48 hrs by LC-MS/MS analysis
- Assay type: ADME, organism-based
- Condition Notes: in vivo
Outcome Measure: half-life (h)
Could you give me the number in h? Just the number is fine.

input: Using the record for COCCCCCCCCCN1C[C@H](O)[C@@H](O)[C@H](O)[C@H]1CO.Cl , report its half-life.
output: 5

* * *

- Measurement Notes: Toxicity in po dosed cynomolgus monkey assessed as maximum tolerated dose administered via gavage as single dose
- Type: organism-based, Macaca fascicularis
- Condition Notes: in vivo
Outcome Measure: MTD (mg/kg)
Could you give me the number in mg/kg? Just the number is fine.

input: Using the record for COCCCCCCCCCN1C[C@H](O)[C@@H](O)[C@H](O)[C@H]1CO.Cl , report its MTD.
output: 258
